- Tested on: EKVX NSCLC
- test-description: NCI tumour cell line growth inhibition, 48 h
Here the recorded TGI is given for each entry.

// known answers, use as guide
[[record]]
compound = "Cc1cc2nc3c(C#N)c(-c4ccccc4)cc(Nc4cccc(C(F)(F)F)c4)n3c2cc1C"
value_type = "TGI"
result = "37.9 µM"

[[record]]
compound = "COc1cc2c3c(n(CCCN4CCOCC4)c(=O)c2cc1OC)-c1cc2c(cc1C3=O)OCO2"
value_type = "TGI"
result = "> 100 µM"

[[record]]
compound = "CC1(CC(=O)OC(C#C[Si](C)(C)C)Cc2ccccc2)OCCO1 (stereo not given)"
value_type = "TGI"
result = "> 100 µM"


Kindly consider the entry below.
Could you please provide reported TGI for COc1ccc2c(c1)N(CCO)C1=C(C(=O)OC1)C2c1cccc(Br)c1 (stereo not given) ? Thanks!
> 100 µM

###

- System: SF-539 CNS
- test-description: NCI tumour cell line growth inhibition, 48 h
value-type: TGI

Example results:
[[record]]
structure = "C/C(CC(=O)Nc1ccc([N+](=O)[O-])cc1)=N/N=C(N)N"
tested_system = "SF-539 CNS"
value_type = "TGI"
result = "> 100 µM"

[[record]]
structure = "Clc1ccc(CCn2cncn2)c(Cl)c1"
tested_system = "SF-539 CNS"
value_type = "TGI"
result = "> 100 µM"

[[record]]
structure = "COC(=O)/C(Br)=C/c1c[nH]c2ccc(Br)cc12"
tested_system = "SF-539 CNS"
value_type = "TGI"
result = "32.9 µM"

[[record]]
structure = "Cc1c(C)c2ccc(O)cc2[nH]c1=O"
tested_system = "SF-539 CNS"
value_type = "TGI"
result = "> 100 µM"

[[record]]
structure = "Cc1ccc(S(=O)(=O)N2C/C(=C\\c3cc(F)cc(F)c3)C(=O)/C(=C/c3cc(F)cc(F)c3)C2)cc1"
tested_system = "SF-539 CNS"
value_type = "TGI"
result = "2.16 µM"


Now, please, on to the next molecule.
Give a short answer stating reported TGI for CCCC[Si](CCCC)(CCCC)O[C@@H](/C=C/C(=O)OCC)[C@H](Cc1ccccc1)O[Si](CCCC)(CCCC)CCCC .
> 100 µM

###

- Tested on: KM12 colon
- test-description: NCI tumour cell line growth inhibition, 48 h
value-type: TGI (µM)
State the answer as a number, implicitly in µM.

The cases that follow already have their TGI on record.
[[record]]
compound = "COC(=O)/C(Br)=C/c1c[nH]c2ccc(Br)cc12"
value_type = "TGI"
numeric_result = 27

[[record]]
compound = "O=C(Nc1cccc2ccccc12)c1cc2ccccc2cc1O"
value_type = "TGI"
numeric_result = 8.01

[[record]]
compound = "Nc1nc(Cl)cc(NCC2(CO)CCC(OCc3ccccc3)C2)n1 (stereo not given)"
value_type = "TGI"
numeric_result = 94.6


Then this compound:
Look up and state reported TGI for C#Cc1ccc(-n2c(/C=C/c3ccc4ccccc4n3)nc3ncccc3c2=O)cc1
1.26

###

- Test system: HOP-92 NSCLC
- test-description: NCI tumour cell line growth inhibition, 48 h; in the data active means GI50 below about 0.43 µM; inactive means the rest
Use one of these outcomes when replying: 1 for active, -1 for inactive

Assay outcome for Cc1cc(Cl)ccc1Nc1nc(C(F)(F)F)ccc1C(=O)N/N=C/c1c(Cl)cccc1Cl : what was it?
1

Could you check what this test reported for Cc1ccc(S(=O)(=O)C2=C3C(=C(c4ccccc4)c4ccccc43)CN(S(=O)(=O)c3ccc(C)cc3)C2)cc1 ?
-1

###

- System: HCT-15 colon
- test-description: NCI tumour cell line growth inhibition, 48 h; in the data active = GI50 below about 0.43 µM; inactive = the rest
Write down one outcome, taken from 1 (yes) (active), 0 (no) (inactive)

[[record]]
compound = "O=C(Nc1ncc(Cc2ccc(Cl)cc2)s1)c1ccc2c(c1)OCCO2"
assigned_label = "1 (yes)"


API: the following record is the query input.
Test call for this compound, please: Nc1nn(C(=O)Nc2ccc(Cc3ccccc3)cc2)c2ccccc12
0 (no)

###

- System: OVCAR-8 ovarian
- test-description: NCI tumour cell line growth inhibition, 48 h
value-type: TGI (µM)
# value in µM; strip the unit string

[[record]]
structure = "COc1ccc(/C=C/C(=O)c2ccc(NC(=O)CSc3nnc(-c4cc(OC)c(OC)c(OC)c4)o3)cc2)cc1"
tested_system = "OVCAR-8 ovarian"
value_type = "TGI"
numeric_result = 5.73


Output TGI of Cc1ccc(S(=O)(=O)N/N=C2/CC[C@H](C(C)(C)C)C[C@@H]2C)cc1
29.9

###

- System: U251 CNS
// classify into y = active, n = inactive

// param item: CCCNNC(=O)c1ccc(CNC(=O)/C=C/c2ccccc2)cc1 ; yields the recorded call
y

Field: outcome | Entry: O=C(Nc1cccc(-n2cc(-c3ccncc3)c(-c3ccc(O)c(Cl)c3)n2)c1)Nc1ccc(Cl)c(C(F)(F)F)c1
n

Outcome logged for COc1cc2c3c(n(CCCN4CCOCC4)c(=O)c2cc1OC)-c1cc2c(cc1C3=O)OCO2 in this assay:
n

Dear all, I need the recorded test outcome for O=C(Nc1ncc(Cc2ccc(Cl)cc2)s1)c1ccc2c(c1)OCCO2 , thank you.
y

What call does the record list for O=C1[C@H](c2ccccc2)C2c3ccccc3CCN12 (stereo not given in full) ?
n

Tell me the assay call for CCNCCNc1cc(C2CCCC2)c(C#N)c2nc3ccccc3n12 please.
n

Could you kindly confirm the outcome this assay logged for COC(C(=O)[C@@H](O)[C@@H](C)O)[C@@H]1Cc2cc3cc(O[C@H]4C[C@@H](O[C@H]5C[C@@H](O)[C@H](O)C(C)O5)[C@H](O)C(C)O4)c(C)c(O)c3c(O)c2C(=O)[C@H]1O[C@H]1C[C@@H](O[C@H]2C[C@@H](O[C@H]3C[C@@H](O)[C@@H](O)C(C)O3)[C@@H](O)C(C)O2)[C@H](O)C(C)O1 (stereo not given in full) ?
y

Call for entry Cc1ccc(S(=O)(=O)C2=C3C(=C(c4ccccc4)c4ccccc43)CN(S(=O)(=O)c3ccc(C)cc3)C2)cc1 :
n

Give the logged outcome of this assay for the following compound: COc1ccc(OC)c2c3c(ncc12)-c1cc2c(cc1C3)OCO2
y

Please share the test call associated with COc1ccc(/C=C2\CCCC3=C2N=C2SC=NN2C3c2ccc(OC)c(OC)c2)cc1OC (stereo not given) .
n

Look up the recorded call for COc1ccc(-c2oncc2-c2cc(OC)c3c(c2)OCO3)cc1 in this test.
n

I'd appreciate the recorded outcome for Cc1ccc(S(=O)(=O)N2C/C(=C\c3cc(F)cc(F)c3)C(=O)/C(=C/c3cc(F)cc(F)c3)C2)cc1 from this test.
y

Any idea what this test logged for CC(=O)O[C@@H]1CC(=O)O[C@@H]2C[C@@H](CC/C(Cl)=C/C/C=C\1C)O[C@@H]2CO ?
n

What outcome does the record of this test show for Cn1cc(C2=C(c3cccc(NCC(O)CO)c3)C(=O)NC2=O)c2cc(Cl)ccc21 (stereo not given) ?
n

So what was the verdict on CN(C)CCOc1cccc(NC2=C(Cl)C(=O)C(Nc3cccc(OCCN(C)C)c3)=C(Cl)C2=O)c1 in this test?
n

###

- Test system: CCRF-CEM leukemia
- test-description: NCI tumour cell line growth inhibition, 48 h
Where a SMILES comes first, the peptide text is derived from it. [ ]: non-standard residue; d: D form. Orn = NCCC[CH](N)C(=O)O
value-type: TGI

These recorded examples may help you get a feel for the data.
[[record]]
compound = "O=c1nc2[nH]nc(-c3ccccc3)c2n[nH]1"
result = "> 100 µM"

[[record]]
compound = "CC(C)CC1NC(=O)C(CCCN)NC(=O)C(C(C)C)NC(=O)C2CCCN2C(=O)C(Cc2ccccc2)NC(=O)C(CC(C)C)NC(=O)C(CCCN)NC(=O)C(C(C)C)NC(=O)C2CCCN2C(=O)C(Cc2ccccc2)NC1=O (stereo not drawn) (cyclo(FPV[Orn]LFPV[Orn]L); configuration not given here)"
result = "0.32 µM"


Attention now turns to another entry.
Output TGI of CC(=O)OCC(OC(C)=O)C(OC(C)=O)C(OC(C)=O)C(/C=N\Nc1nc2ccccc2c(=O)[nH]1)OC(C)=O (stereo not drawn)
> 100 µM

###

Property: GI50; scope: individual compounds
- System: SK-OV-3 ovarian
- test-description: NCI tumour cell line growth inhibition, 48 h

[[record]]
structure = "COc1ccc(/C=C/C(=O)c2ccc(NC(=O)CSc3nnc(-c4cc(OC)c(OC)c(OC)c4)o3)cc2)cc1"
result = "2.42 µM"

[[record]]
structure = "CC(=O)/C=C/c1ccc(N(C)Cc2ccc(C(C)(C)C)cc2)cc1"
result = "217 µM"

[[record]]
structure = "COc1ccc(-c2oncc2-c2cc(OC)c3c(c2)OCO3)cc1"
result = "3.76 µM"


Pending compound:
Please list GI50 recorded for the compound C[C@H]1[C@H](C)CC[C@]2(C(=O)O)CC[C@]3(C)C(=CC[C@@H]4[C@@]5(C)CC[C@H](OC(=O)/C=C\c6ccc(O)cc6)C(C)(C)[C@@H]5CC[C@]43C)[C@H]12
11.9 µM

Numbers sourced from PubChem BioAssay (NCI).
